# Study target: T1, Pro-C1s
# T1 construct: also called purified pro-C1s protein
# T1 chain: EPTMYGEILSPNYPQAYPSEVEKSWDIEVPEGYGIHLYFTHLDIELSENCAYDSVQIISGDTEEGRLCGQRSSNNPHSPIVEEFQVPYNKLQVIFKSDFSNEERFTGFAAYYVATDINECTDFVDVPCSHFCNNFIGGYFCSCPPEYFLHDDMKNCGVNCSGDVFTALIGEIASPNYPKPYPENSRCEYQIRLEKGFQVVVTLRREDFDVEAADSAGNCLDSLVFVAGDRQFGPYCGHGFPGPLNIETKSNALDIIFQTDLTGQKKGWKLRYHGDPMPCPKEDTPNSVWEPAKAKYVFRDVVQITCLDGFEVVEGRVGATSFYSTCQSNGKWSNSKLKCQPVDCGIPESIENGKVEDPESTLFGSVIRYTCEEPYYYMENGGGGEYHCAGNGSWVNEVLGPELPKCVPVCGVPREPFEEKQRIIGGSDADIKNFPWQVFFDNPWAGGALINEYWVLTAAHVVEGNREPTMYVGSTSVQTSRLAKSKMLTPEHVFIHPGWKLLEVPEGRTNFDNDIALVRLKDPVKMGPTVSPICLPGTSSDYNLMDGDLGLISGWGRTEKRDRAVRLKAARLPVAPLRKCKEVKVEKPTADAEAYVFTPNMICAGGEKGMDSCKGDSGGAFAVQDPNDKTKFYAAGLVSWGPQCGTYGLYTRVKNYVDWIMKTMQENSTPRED
# Protocol description: bio-layer interferometry (BLI), kinetic analysis
Quantity: pKd
Note: pKd values are expressed as the negative base-10 logarithm of concentration in M.

Here is how some binders turned out for pKd.
- Binder: "antibody IPN-M14 (antibody, V domains shown, Mouse monoclonal antibody (NZBW hybridoma)) VH: EVKLQQSGAELVRPGASVKLSCTASGFNIKDDYIHWVKQRPEQGLEWIGRIDPADGHTKYAPKFQVKATITADTSSNTAYLQLSSLTSEDTAVYYCARYGYGREVFDYWGQGTTLTVSS VL: DIVLTQFPTFLAVFLGQRAPISCKASQSVDYDGDSYMNWFQQKTGQPPKILIYDASNLEFGIPTRFSGSGFGTDFPLNIHPVEEEDAAIYFCQQSNEDPWTFGGGPKLEIK"
  pKd: 7.87
- Binder: "antibody IPN-M28 (antibody, V domains shown, Mouse monoclonal antibody (NZBW hybridoma)) VH: EVQLQQSGAELVRPGASVKLSCTASGFNIKDDYIHWVKQRPEQGLEWIGRIDPADDHTKYAPKFQDKATMTADTSSNTACLQLNSLTSEDTAVYYCAIYGSGWAWFPYWGQGTLVSVSA VL: DIVLTQTPDYLAVSLGQRATISCKASQSVDYDGDSYMNWYQQKPGQPPKLLIYAASNLESGIPARFSGSGSGTDFTLNIHPVEEEDAATYYCQQSNEDPWTFGGGTKLEIK"
  pKd: 7.78
- Binder: "antibody IPN-M2 (antibody, V domains shown, Mouse monoclonal antibody (NZBW hybridoma); Same VL and VH as IPN-M8) VH: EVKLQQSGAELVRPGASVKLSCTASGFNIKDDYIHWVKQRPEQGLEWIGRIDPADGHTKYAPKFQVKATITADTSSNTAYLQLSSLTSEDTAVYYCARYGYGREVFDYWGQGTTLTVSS VL: DIVLTQSPASLAVSLGQRATISCKASQSVDYDGDSYMNWYQQKTGQPPKILIYDASNLESGIPARFSGSGSGTDFTLNIHPVEEEDAAIYYCQQSNEDPWTFGGGTKLEIK"
  pKd: 7.37

Task: Recorded pKd of antibody IPN-M29 (antibody, V domains shown, Mouse monoclonal antibody (NZBW hybridoma)) VH: EVQLQQSGPELVKPGASVKISCKASGYSFTGFYMQWVKQSPEKNLEWIGEINPTTGDETYNQKFQAKATLTVDKSSSTAYMQLKSLTSEDSAVYFCASDFYDGSFAWFEYWGKDYLTVSA VL: DIVLTQSPVIMSASPGEKVTMTCSASSSISYIHWYQQKPGTSPKRWIYDTSKLASGVPARFSGSGSGTSYSLTISSMEAEDAATYYCHQRSSYLTFGSGTKLEIK , please.
Output: 8.26

Task: Which pKd value belongs to antibody IPN-M27 (antibody, V domains shown, Mouse monoclonal antibody (NZBW hybridoma)) VH: QVQLQQSGAELVRPGASVKLSCKVSGYTFTRYWMHWVKQRPGQGLEWIGEINPSNSDTDYNEEFKSKATLTVDKSSSTAYMHLSNLTSEDSAVYYCTIDDSAYGWFAYWGQGTLVTVSA VL: DIVLTQSTAIMSASPGERVTMTCSASSSISYMHWYHQKPGTSPKRWIYDTSKLASGVPARFSGSGSGTSYSLAISSMEAEDAATYYCHQRSSFPTFGAGTKLELK ?
Output: 7.95
